Test system: Plasmodium falciparum NF54 asexual blood stage
Assay: % inhibition of asexual blood stage proliferation (pLDH); higher = more inhibition
Conditions: 20 µM; 72 h
Attribute: % inhibition of asexual blood stage proliferation
Number only, in %; omit the unit.

See these solved cases before continuing.
NCC(=O)Nc1ccc(-n2nc(C(F)(F)F)cc2-c2ccc3c(ccc4ccccc43)c2)cc1: 67.6
CC#C[C@]1(O)CC[C@H]2[C@@H]3CCC4=CC(=O)CCC4=C3[C@@H](c3ccc(N(C)C)cc3)C[C@@]21C: 53.8

Recorded % inhibition of asexual blood stage proliferation for `CN(C)CCCOc1ccc(-c2ccc3ncc4c(c3c2)n(C2CCOCC2)c(=O)n4C)cn1` on Plasmodium falciparum NF54 asexual blood stage was 57.1

`CC(C)Oc1ccc(-n2cnc3cc(/C=C\c4ccc(C(C)(C)O)cc4)ccc32)cc1` on Plasmodium falciparum NF54 asexual blood stage gives % inhibition of asexual blood stage proliferation = 54.7

Form field, % inhibition of asexual blood stage proliferation with Plasmodium falciparum NF54 asexual blood stage, item `COc1ccc(SCC(=O)N2c3ccccc3Sc3ccccc32)cc1` : 35.5

# `O=C1[C@H](CC[C@H](O)c2ccc(F)cc2)[C@@H](c2ccc(O)cc2)N1c1ccc(F)cc1` with Plasmodium falciparum NF54 asexual blood stage: % inhibition of asexual blood stage proliferation is 61

The compound `Clc1ccc(Cn2c(CN3CCCC3)nc3ccccc32)cc1` , when measured on Plasmodium falciparum NF54 asexual blood stage, yielded % inhibition of asexual blood stage proliferation of 69

I looked up `CC(C)(C)NC(=O)[C@@H]1C[C@@H]2CCCC[C@@H]2CN1C[C@@H](O)[C@H](Cc1ccccc1)NC(=O)[C@H](CC(N)=O)NC(=O)c1ccc2ccccc2n1` and its % inhibition of asexual blood stage proliferation for Plasmodium falciparum NF54 asexual blood stage was 58.3

###

Test system: Plasmodium falciparum NF54 stage IV/V gametocytes
Assay: % inhibition of gametocyte viability (luciferase reporter); higher = more inhibition
Settings: 5 µM; 48 h
Here the recorded % inhibition of gametocyte viability is given for each entry.
Lab book: enter the figure in %, no units written.

CN1CCN(c2ccc3[nH]c(-c4ccc5[nH]c(-c6ccc(O)cc6)nc5c4)nc3c2)CC1: 20.9

Let's switch to this molecule now.
Record `CCc1cc(Nc2cc(=O)n(CCN3CCN(C(=O)c4ccccc4)CC3)c(=O)[nH]2)ccc1C` has Plasmodium falciparum NF54 stage IV/V gametocytes % inhibition of gametocyte viability equal to 9.16

###

Tested on: Plasmodium berghei ANKA liver stage in HepG2-A16-CD81
Test: % inhibition of liver stage parasite viability (luciferase); higher = more inhibition
Conditions: 5 µM; 48 h
Quick reference: % inhibition of liver stage parasite viability of the listed items.
# value in %; strip the unit string

Solved entries (count: 3):
CC(C)CCN1C(=O)C(C2=NS(=O)(=O)c3cc(NS(C)(=O)=O)ccc3N2)=C(O)[C@@H]2[C@H]3CC[C@H](C3)[C@@H]21: 47.3
Cc1nc(-c2ccc(C3N(C)c4ccc(F)cc4C(=O)N3c3ccccc3)s2)cs1 (centres undefined): 31.9
NC(=O)c1nccn([C@@H]2O[C@H](CO)[C@@H](O)[C@H]2O)c1=O: 14.7

Now for the molecule whose % inhibition of liver stage parasite viability we want.
In plain terms, `COc1ccc(C(C)(C)C)cc1NC(=O)C(=O)c1ccc(OCCN2CCOCC2)c2ccccc12` has a documented % inhibition of liver stage parasite viability of 15.1
